In this section we review reported Ki values for a set of molecules.
# assayed_system: human adenosine A2a receptor (Homo sapiens (Human))
Response body: numeric value in nM, unit text excluded.

CCCC(=O)c1nc(N)c2nc(-n3nccn3)n(C)c2n1 [Example 6] :: 19
C[C@H](O)CCc1nc(N)c2nc(-n3nccn3)n(C)c2n1 [Example 3] :: 19
C[C@@H](O)CCc1nc(N)c2nc(-n3nccn3)n(C)c2n1 [Example 4] :: 8

Lab note: need Ki with human adenosine A2a receptor (Homo sapiens (Human)) for entry CC(O)CCc1nc(N)c2nc(-n3nccn3)n(C)c2n1 (stereo not shown) [Example 2] , please look it up.
8

---

Reported values: pKi for human adenosine A1 receptor (Homo sapiens (Human), UniProt P30542), one per item.
Scale: negative log10 of molar concentration, which is what pKi denotes.

CCCC(=O)c1nc(N)c2nc(-n3nccn3)n(C)c2n1 :: 6.67
CC(O)CCc1nc(N)c2nc(-n3nccn3)n(C)c2n1 (stereo not drawn) :: 7.57

Lab note: need pKi with human adenosine A1 receptor (Homo sapiens (Human), UniProt P30542) for entry CC(=O)CCc1nc(N)c2nc(-n3nccn3)n(C)c2n1 , please look it up.
Sequence (P30542 whole entry): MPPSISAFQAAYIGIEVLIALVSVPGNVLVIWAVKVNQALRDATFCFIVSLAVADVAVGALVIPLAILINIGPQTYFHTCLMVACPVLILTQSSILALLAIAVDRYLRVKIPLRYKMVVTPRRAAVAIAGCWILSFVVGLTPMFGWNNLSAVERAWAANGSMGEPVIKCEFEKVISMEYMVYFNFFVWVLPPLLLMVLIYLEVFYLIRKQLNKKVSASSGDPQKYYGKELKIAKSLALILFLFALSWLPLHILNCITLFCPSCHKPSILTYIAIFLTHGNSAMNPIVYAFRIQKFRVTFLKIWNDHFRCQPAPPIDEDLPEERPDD
6.71

---

In this section we review reported pIC50 values for a set of compounds.
# assayed_system: human adenosine A2a receptor (Homo sapiens (Human), UniProt P29274)
# Sequence (P29274 whole entry): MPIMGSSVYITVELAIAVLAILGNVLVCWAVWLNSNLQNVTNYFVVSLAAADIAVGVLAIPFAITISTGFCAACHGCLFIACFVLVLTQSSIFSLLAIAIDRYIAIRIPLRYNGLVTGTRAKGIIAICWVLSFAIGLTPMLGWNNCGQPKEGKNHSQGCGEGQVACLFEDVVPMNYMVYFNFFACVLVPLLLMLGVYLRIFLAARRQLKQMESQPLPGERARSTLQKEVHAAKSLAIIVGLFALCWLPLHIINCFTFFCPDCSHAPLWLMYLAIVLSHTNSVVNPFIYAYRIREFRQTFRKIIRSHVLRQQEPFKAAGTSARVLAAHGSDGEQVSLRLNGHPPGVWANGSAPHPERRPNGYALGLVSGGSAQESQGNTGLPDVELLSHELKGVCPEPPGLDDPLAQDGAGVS
# measurement_description: Inhibition of NECA-induced cAMP accumulation in HEK 293 cells
# run_parameters: HEK 293 cells expressing human A2a; 100 nmol/l NECA; mean of four experiments
Scale: negative log10 of molar concentration, which is what pIC50 denotes.

Solved entries:
C[C@H](O)CCc1nc(N)c2nc(-n3nccn3)n(C)c2n1 :: 6.59
Cn1c(-n2nccn2)nc2c(N)nc(CCCCO)nc21 :: 5.67
CC(O)CCc1nc(N)c2nc(-n3nccn3)n(C)c2n1 (stereo not shown) :: 6.35
CC(=O)CCc1nc(N)c2nc(-n3nccn3)n(C)c2n1 :: 6.00
CCCC(O)c1nc(N)c2nc(-n3nccn3)n(C)c2n1 (stereo not shown) :: 5.63

Lab note: need pIC50 with human adenosine A2a receptor (Homo sapiens (Human), UniProt P29274) for entry CCCC(=O)c1nc(N)c2nc(-n3nccn3)n(C)c2n1 , please look it up.
5.53

Lab note: need pIC50 with human adenosine A2a receptor (Homo sapiens (Human), UniProt P29274) for entry C[C@@H](O)CCc1nc(N)c2nc(-n3nccn3)n(C)c2n1 , please look it up.
6.38
